Tested on: MSSA UAMS‐1 biofilm formation
Assay: Staphylococcal biofilm inhibition, crystal violet microtitre test (MBIC)
Type: cell-based
Conditions: Staphylococcus aureus, S. aureus UAMS‐1 biofilm, 22 h, read-out: MSSA MBIC
# log10 minimal effective concentration per record follows
Response schema: value (number) is log10 of minimal effective concentration in units of µM.

These recorded examples may help you get a feel for the data.
CC(C)CCOc1cccc2cccnc12 :: 3.08
CCCCCOc1cccc2cccnc12 :: 2.77

Sample Cc1ccc2c(Cl)cc(Cl)c(O)c2n1 [HQ‐2, 5,7‐dichloro‐8‐hydroxy‐2‐methylquinoline, reference compound] ; log10 minimal effective concentration observed: 1.25

Sample O=C(O)c1cn(C2CC2)c2cc(N3CCNCC3)c(F)cc2c1=O [Ciprofloxacin, reference compound] ; log10 minimal effective concentration observed: 0.30

Sample `CC(C)=CCOc1cccc2cccnc12` ; log10 minimal effective concentration observed: 2.78

Sample `CC(C)=CCOc1cccc2ccc(C=O)nc12` ; log10 minimal effective concentration observed: 2.73

----------
Test system: methicillin‐resistant S. aureus (MRSA) AH1263 or LAC
Test: Antistaphylococcal activity, broth microdilution (MIC)
Assay type: cell-based, Staphylococcus aureus
Settings: Staphylococcus aureus, MRSA, 18 h, read-out: MRSA MIC
PROPERTY LABEL: MIC

O=Cc1ccc2cccc(O)c2n1 [HQ‐4, 8‐hydroxyquinoline‐2‐carbaldehyde, reference compound] :: 370 µM

Sample Oc1cccc2cccnc12 [HQ‐1, 8‐hydroxyquinoline, reference compound] ; MIC observed: 6.9 µM

Sample Cc1ccc2cccc(O)c2n1 [HQ‐3, 2‐methyl‐8‐hydroxyquinoline, reference compound] ; MIC observed: 101 µM

Sample CN[C@H](CC(C)C)C(=O)N[C@H]1C(=O)N[C@@H](CC(N)=O)C(=O)N[C@H]2C(=O)N[C@H]3C(=O)N[C@H](C(=O)N[C@H](C(=O)O)c4cc(O)cc(O)c4-c4cc3ccc4O)[C@H](O)c3ccc(c(Cl)c3)Oc3cc2cc(c3O[C@@H]2O[C@H](CO)[C@@H](O)[C@H](O)[C@H]2O[C@H]2C[C@](C)(N)[C@H](O)[C@H](C)O2)Oc2ccc(cc2Cl)[C@H]1O [Vancomycin, reference compound] ; MIC observed: 1 µM

----------
Tested on: Mycobacterium tuberculosis H37Rv (ATCC 27264)
Experiment: Antimycobacterial activity, microtitre Alamar Blue/Presto Blue assay (MIC)
Format: cell-based
Conditions: 120 h, M. tuberculosis H37Rv, 5 days, 37°C, read-out: M. tb MIC
# MIC per record follows

CC(C)CCOc1cccc2cccnc12 :: > 100 µM

Sample `Cc1ccc2c(Cl)cc(Cl)c(OCCC(C)C)c2n1` ; MIC observed: > 100 µM

Sample `CCCCCOc1c(Cl)cc(Cl)c2ccc(C)nc12` ; MIC observed: > 100 µM
